Molecular target: Peroxisome proliferator-activated receptor alpha (Homo sapiens)
Sequence (Q07869 whole entry): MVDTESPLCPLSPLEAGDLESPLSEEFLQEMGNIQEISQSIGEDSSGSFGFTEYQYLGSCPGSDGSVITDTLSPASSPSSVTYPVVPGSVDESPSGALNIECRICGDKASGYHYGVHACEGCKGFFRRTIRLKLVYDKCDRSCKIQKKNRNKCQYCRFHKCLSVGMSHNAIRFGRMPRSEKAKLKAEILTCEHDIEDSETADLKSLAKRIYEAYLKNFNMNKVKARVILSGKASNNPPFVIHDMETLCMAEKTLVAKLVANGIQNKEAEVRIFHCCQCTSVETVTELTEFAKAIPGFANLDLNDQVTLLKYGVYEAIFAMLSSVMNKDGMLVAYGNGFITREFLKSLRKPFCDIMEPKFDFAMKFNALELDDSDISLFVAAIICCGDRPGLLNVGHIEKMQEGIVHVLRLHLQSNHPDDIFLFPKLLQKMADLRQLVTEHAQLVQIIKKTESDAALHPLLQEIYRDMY
property_name: pEC50
Interpret pEC50 as the negative base-10 log of the concentration measured in mol/L.

// query pEC50 value for entry `CCO[C@H](COc1ccc(C(F)(F)F)cc1)CSc1ccc(OCC(=O)O)c(C)c1`
5.82

----------
Molecular target: Acetyl-CoA carboxylase 2 (Homo sapiens)
Sequence (O00763 whole entry): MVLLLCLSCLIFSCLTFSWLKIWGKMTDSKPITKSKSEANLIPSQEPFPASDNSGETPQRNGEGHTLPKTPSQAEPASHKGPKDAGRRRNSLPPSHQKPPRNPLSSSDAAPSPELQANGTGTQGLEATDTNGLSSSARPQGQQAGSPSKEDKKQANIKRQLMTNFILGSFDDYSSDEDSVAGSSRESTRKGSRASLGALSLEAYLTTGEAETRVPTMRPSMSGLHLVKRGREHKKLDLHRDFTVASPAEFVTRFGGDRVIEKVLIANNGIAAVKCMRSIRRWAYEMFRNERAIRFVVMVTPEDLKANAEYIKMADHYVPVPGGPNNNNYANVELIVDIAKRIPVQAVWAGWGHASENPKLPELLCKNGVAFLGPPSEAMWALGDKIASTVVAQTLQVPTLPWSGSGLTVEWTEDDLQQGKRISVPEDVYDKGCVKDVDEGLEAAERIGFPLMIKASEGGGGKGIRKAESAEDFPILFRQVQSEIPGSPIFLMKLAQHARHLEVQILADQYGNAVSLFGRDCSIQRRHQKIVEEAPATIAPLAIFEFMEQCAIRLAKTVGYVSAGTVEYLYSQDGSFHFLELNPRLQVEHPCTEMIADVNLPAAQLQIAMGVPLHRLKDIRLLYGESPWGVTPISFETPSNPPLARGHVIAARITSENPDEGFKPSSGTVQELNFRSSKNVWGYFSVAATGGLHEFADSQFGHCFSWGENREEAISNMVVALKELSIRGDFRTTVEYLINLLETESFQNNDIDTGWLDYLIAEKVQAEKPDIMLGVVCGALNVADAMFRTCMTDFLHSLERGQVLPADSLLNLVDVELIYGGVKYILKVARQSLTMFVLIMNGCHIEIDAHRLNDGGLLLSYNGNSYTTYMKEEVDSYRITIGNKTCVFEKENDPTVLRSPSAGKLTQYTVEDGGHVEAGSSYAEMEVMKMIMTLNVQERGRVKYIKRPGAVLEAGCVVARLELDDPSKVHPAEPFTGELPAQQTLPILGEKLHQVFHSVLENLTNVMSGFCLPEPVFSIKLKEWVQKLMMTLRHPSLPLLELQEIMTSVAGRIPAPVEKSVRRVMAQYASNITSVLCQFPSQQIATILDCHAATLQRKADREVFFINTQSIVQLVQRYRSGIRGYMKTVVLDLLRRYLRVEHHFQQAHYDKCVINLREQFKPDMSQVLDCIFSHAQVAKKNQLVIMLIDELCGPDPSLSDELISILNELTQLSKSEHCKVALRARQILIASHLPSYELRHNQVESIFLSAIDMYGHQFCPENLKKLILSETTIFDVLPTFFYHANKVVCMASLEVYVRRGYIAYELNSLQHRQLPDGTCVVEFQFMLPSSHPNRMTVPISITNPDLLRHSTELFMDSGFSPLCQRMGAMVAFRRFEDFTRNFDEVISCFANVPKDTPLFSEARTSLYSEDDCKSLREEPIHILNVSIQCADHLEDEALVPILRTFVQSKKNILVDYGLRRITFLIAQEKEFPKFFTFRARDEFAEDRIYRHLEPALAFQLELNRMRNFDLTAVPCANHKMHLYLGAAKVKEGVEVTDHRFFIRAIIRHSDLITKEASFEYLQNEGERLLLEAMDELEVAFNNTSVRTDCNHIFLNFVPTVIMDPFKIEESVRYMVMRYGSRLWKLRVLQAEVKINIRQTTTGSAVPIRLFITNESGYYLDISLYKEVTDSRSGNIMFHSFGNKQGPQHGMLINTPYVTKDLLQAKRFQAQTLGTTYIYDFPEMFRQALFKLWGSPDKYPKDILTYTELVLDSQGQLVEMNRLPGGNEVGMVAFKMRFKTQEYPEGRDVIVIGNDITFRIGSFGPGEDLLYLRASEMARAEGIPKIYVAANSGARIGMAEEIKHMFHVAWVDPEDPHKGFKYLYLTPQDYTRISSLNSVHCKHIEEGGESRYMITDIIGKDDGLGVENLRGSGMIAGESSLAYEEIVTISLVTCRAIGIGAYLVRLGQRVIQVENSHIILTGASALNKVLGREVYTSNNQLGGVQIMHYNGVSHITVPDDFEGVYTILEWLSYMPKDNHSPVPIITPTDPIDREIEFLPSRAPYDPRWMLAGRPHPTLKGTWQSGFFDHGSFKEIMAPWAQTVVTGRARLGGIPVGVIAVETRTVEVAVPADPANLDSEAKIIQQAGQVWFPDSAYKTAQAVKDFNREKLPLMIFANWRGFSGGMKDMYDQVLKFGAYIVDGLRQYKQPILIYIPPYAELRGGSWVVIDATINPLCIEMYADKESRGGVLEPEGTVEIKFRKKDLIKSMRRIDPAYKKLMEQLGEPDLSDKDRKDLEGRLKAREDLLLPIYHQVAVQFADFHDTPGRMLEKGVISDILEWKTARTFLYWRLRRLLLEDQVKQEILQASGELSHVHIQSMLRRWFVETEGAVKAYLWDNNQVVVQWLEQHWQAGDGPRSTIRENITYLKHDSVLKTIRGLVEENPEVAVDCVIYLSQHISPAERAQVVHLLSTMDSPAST
Each record here notes measured pIC50.
Interpret pIC50 as the negative base-10 log of the concentration measured in mol/L.

CCOC(=O)c1sc2c(c1C)c(=O)n(CCO)c(=O)n2CCc1ccccc1    5.18
COc1cc(C(=O)N2CCC3(CC2)CC(=O)c2c(cnn2C(C)C)C3)cc(-c2ccc(C(=O)O)cc2)n1    7.52

Now turn to the next compound.
Give Acetyl-CoA carboxylase 2 (Homo sapiens) pIC50 for `COc1cc(C(=O)N2CCC3(CC2)CC(=O)c2cc(-c4cncc(C(=O)O)c4)ccc2O3)cc2c1c(C)cn2C1CC1`
8.52

----------
Each record here notes measured pEC50.
Target: Bile acid receptor (Homo sapiens)
Sequence (Q96RI1 whole entry): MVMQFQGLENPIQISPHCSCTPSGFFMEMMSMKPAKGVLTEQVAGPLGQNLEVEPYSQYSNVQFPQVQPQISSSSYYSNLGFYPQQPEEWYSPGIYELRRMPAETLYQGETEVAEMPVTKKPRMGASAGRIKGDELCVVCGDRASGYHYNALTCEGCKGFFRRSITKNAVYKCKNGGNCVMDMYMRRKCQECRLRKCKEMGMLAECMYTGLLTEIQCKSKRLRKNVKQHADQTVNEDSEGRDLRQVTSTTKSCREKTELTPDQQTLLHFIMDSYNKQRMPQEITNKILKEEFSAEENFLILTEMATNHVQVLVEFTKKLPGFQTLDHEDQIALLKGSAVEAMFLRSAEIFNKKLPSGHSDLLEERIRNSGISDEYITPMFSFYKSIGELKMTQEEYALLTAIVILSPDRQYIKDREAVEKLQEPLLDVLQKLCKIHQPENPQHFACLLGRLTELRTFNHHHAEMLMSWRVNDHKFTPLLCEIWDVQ
Interpret pEC50 as the negative base-10 log of the concentration measured in mol/L.

O=C(O)c1ccnc(N2CC(O)(c3ccc(OCc4c(-c5c(Cl)cccc5Cl)noc4C4CC4)cc3Cl)C2)c1 [CILOFEXOR]    7.82

// query pEC50 value for entry `O=C(O)c1ccc([C@H]2C[C@@H]2c2ccc(OCc3c(-c4c(Cl)cccc4Cl)noc3C3CC3)cc2Cl)cc1`
6.68

----------
Assay: Half life in rat
Format: ADME
Conditions: in vivo
property_name: half-life (h)
Please reply with the bare figure in h and do not write the unit itself.

// query half-life value for entry `CC(C)c1onc(-c2c(Cl)cccc2Cl)c1COc1ccc(/C=C/c2cccc(C(=O)O)c2)c(Cl)c1`
3.5

----------
Test: Binding affinity to mouse MPC
property_name: IC50 (nM)
Please reply with the bare figure in nM and do not write the unit itself.

Example results:
COc1cccc(C(=O)COc2ccc(CC3SC(=O)NC3=O)cc2)c1 (stereo not drawn)    1380
CCc1ccc(CCOc2ccc(CC3SC(=O)NC3=O)cc2)nc1 (stereo not drawn)    1200

// query IC50 value for entry CN(CCOc1ccc(CC2SC(=O)NC2=O)cc1)c1ccccn1 (stereo not drawn)
1180

----------
Target: Acetyl-CoA carboxylase 1 (Homo sapiens)
property_name: IC50 (nM)
Please reply with the bare figure in nM and do not write the unit itself.

COc1ccccc1[C@H](Cn1c(=O)n(C(C)(C)C(=O)O)c(=O)c2c(C)c(-c3ncco3)sc21)OC1CCOCC1    1.7

// query IC50 value for entry `COc1cc(C(=O)N2CCC3(CC2)CC(=O)c2cc(-c4cncc(C(=O)O)c4)ccc2O3)cc2c1c(C)cn2C1CC1`
3

Now consider `COc1cc(C(=O)N2CCC3(CC2)CC(=O)c2c(cnn2C(C)C)C3)cc(-c2ccc(C(=O)O)cc2)n1` and answer again.
31

Now consider `CCOC(=O)c1sc2c(c1C)c(=O)n(CCO)c(=O)n2CCc1ccccc1` and answer again.
3900
